experiment: A CellTox Green Cytotoxicity Assay to monitor cytotoxicity in HEK293 cells - 24 hour (AID 1224875); details: CellTox Green fluorescence; series mostly up to 76.8 µM; note: nearly all actives have a fitted effect of over 45% in size
Inconclusive results are not listed. The source made the active and inactive calls. Calls come from the whole dose curve; as a rule, active = well fitted activation curve with a large enough effect in the repeat runs; inconclusive = weak or mixed curves; inactive = flat fitted curve, though single readings scatter.
Choose one outcome from this list and give only that: class 1 for active, class 0 for inactive

Solved entries (count: 4):
compound	className
CCCCCCCCCCOC(=O)c1ccccc1C(=O)OCCCCCCCCCC	class 0
CNC(C)Cc1ccccc1OC (stereo unspecified)	class 0
C=CC(C)=O	class 0
O=C(CCl)c1ccc(Cl)cc1Cl	class 1

Req: In this assay, the call recorded for BrCC(Br)C1CCC(Br)C(Br)C1 (stereo unspecified) was what?
Resp: class 0

Req: // outcome(item) with item = Nc1ccc([N+](=O)[O-])cc1[N+](=O)[O-]
Resp: class 0

----------
test: Caspase-3/7 induction in HepG2 cells by small molecules, qHTS cell viability counter screen (AID 1346981); details: CellTiter-Fluor fluorescence, 17 h; series mostly up to 92.4 µM; note: nearly all actives have a fitted effect of over 30% in size
Records with an inconclusive call do not appear. The source made the active and inactive calls. Calls come from the whole dose curve; as a rule, active = well fitted cell-killing curve with a large enough effect in the repeat runs; inconclusive = weak or mixed curves, or effect the other way; inactive = flat fitted curve, though single readings scatter.
The reply should be one of these categories: active, inactive

Consider the worked cases shown below.
molecule	className
CCCCNP(N)(N)=S	inactive
Cc1ccc(N)cc1C	inactive
C/C=C/C=O	inactive
C=CC[C@]1(O)CC[C@H]2[C@@H]3CCC4=CC(=O)CCC4=C3C=C[C@@]21C	inactive
COc1cc(Cl)c(OC)cc1Cl	inactive

Req: Entry CC1Sc2c(C(=O)O)c(=O)c3cc(F)c(N4CCNCC4)cc3n21 (stereo not given) : call = ?
Resp: inactive

Req: Outcome logged for c1ccoc1 in this assay:
Resp: inactive

Req: Any idea what this test logged for COC(N)=O ?
Resp: inactive

Req: // param item: O=Cc1ccc2c(c1)OCO2 ; yields the recorded call
Resp: inactive

Req: What classification did CCc1ccc(C(=O)NN(C(=O)c2cc(C)cc(C)c2)C(C)(C)C)cc1 end up with in this test?
Resp: active

----------
experiment: qHTS assay to identify small molecule antagonists of the estrogen related receptor signaling pathway with the pleiotropic PPARgamma coactivator (PGC) from Tox21 10K library (AID 1224841); settings: PGC/ERR reporter cell line, ONE-Glo luciferase, 18 h; series mostly up to 92.4 µM; note: actives are mostly falling curves and most rising ones were filed inactive; nearly all actives have a fitted effect of over 50% in size
Results filed as inconclusive are left out. Active and inactive are the calls of the source. How the calls were made is not given here.
Would you mind answering with one of these outcomes? active, inactive

Observe how each entry below is paired with its result.
compound	className
Clc1ccc(C(OCCN2CCCCC2)c2ccccc2)cc1 (configuration not stated)	inactive
CN1C(=O)C(O)N=C(c2ccccc2)c2cc(Cl)ccc21 (configuration not stated)	inactive
Cl/C=C\C[N+]12CN3CN(CN(C3)C1)C2	inactive
NC(=O)CI	inactive
C(=NC1CCCCC1)=NC1CCCCC1	active
COc1ccc(-c2ccccc2)cc1NNC(=O)OC(C)C	active
Cn1sc(Cl)cc1=O	inactive
C[C@@H]1CC[C@H]2[C@@H](C)C(=O)O[C@@H]3O[C@@]4(C)CC[C@@H]1[C@]32OO4	active
Nc1nc(=S)[nH][nH]1	inactive
c1cc2ccc3cccc4ccc(c1)c2c34	inactive

Proceed to the following item.
Req: Outcome? OC(c1ccc(Cl)cc1)(c1ccc(Cl)cc1)c1cccnc1
Resp: active

----------
biological target: Nuclear receptor subfamily 1 group I member 2 (Homo sapiens); test: Human pregnane X receptor (PXR) small molecule agonists, qHTS assay (AID 1346982); conditions: PXR-Luc HepG2, CYP3A4 luciferase reporter, 24 h; series mostly up to 92.4 µM; note: nearly all actives have a fitted effect of over 35% in size
Records with an inconclusive call do not appear. Calls of active or inactive are those of the source. Calls come from the whole dose curve; as a rule, active = well fitted activation curve with a large enough effect in the repeat runs; inconclusive = weak or mixed curves; inactive = no such curve, though single readings can be large or run the other way.
Write down one outcome, taken from active, inactive

# example entries with known answers
molecule	className
COP(=S)(OC)Oc1ccc([N+](=O)[O-])cc1Cl	inactive
Cl/C=C\C[N+]12CN3CN(CN(C3)C1)C2	inactive
CCOP(=O)(OCC)SCCSCC	active
CCOC(=O)CBr	inactive

Req: // outcome(item) with item = Cc1cc(=O)[nH]o1
Resp: inactive

Req: What did the test return for Cn1sc(Cl)cc1=O ?
Resp: inactive

Req: Dear colleague, could you share the recorded outcome for Clc1cc(C(Cl)(Cl)Cl)cnc1Cl when you have a moment?
Resp: active

Req: Assay result, entry C=CC(C)=O — outcome?
Resp: inactive

Req: For Cn1cc[n+](C)c1 (tested in a mixture with another compound) , what call appears in the results of this test?
Resp: inactive

Cited source: PubChem BioAssay (Tox21)
